Values from patent US9758788B2

# assayed_system: alpha7 nicAChR (Rattus norvegicus, UniProt Q05941)
# Sequence (Q05941 23-502): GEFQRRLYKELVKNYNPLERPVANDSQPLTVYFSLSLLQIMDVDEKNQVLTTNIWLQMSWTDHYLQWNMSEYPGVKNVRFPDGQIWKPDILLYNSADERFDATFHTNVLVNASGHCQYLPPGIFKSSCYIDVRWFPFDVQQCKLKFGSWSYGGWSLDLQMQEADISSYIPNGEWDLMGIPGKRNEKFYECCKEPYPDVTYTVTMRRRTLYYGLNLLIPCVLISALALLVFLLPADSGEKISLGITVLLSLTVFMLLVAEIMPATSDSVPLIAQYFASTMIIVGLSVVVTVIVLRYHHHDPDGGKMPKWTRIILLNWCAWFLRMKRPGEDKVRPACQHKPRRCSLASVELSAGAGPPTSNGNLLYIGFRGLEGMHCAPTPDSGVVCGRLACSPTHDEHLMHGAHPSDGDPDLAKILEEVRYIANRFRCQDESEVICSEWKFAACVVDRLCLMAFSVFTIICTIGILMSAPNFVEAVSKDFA
observable: pKi
Answers are plain numbers, as −log10 of the molar value.

Task: Could you share which pKi value was measured for CN1CCCC2C(c3ccccc3)C(C3=NCCCC3)C(c3ccccc3)CC21 (stereo not shown) ?
Result: 3.98
